Catalogue of IC50 readings, one per entry.
Molecular target: Synaptic vesicular amine transporter (Homo sapiens)
Experiment: SLC18A2 vesicular uptake inhibitors, dose response (AID 1794817)
Settings: HEK-293 SLC18A2 OE, FFN206 uptake fluorescence

Query: Recall the recorded IC50 for CNc1ccc2c(CCN)cc(=O)oc2c1 with Synaptic vesicular amine transporter (Homo sapiens) and state it.
Result: 3560 nM

***
Query: Recall the recorded IC50 for COc1cc2c(cc1OC)C1CC(=O)C(CC(C)C)CN1CC2 (configuration not stated) with Synaptic vesicular amine transporter (Homo sapiens) and state it.
Result: 19.8 nM
